test system: Human immunodeficiency virus 2; assay: Effective concentration required to inhibit HIV-2 induced cytopathicity in human MT-4 cell line; assay type: functional, organism-based; conditions: Human immunodeficiency virus 2, MT4
endpoint name: EC50

For orientation, consider the following solved cases.
compound	tested system	endpoint name	assay result
Cc1cn([C@@H]2O[C@H](CO[Si](C)(C)C(C)(C)C)[C@@]3(OS(=O)(=O)C=C3N)[C@H]2O[Si](C)(C)C(C)(C)C)c(=O)n(CCc2cccc3cc[nH]c23)c1=O	Human immunodeficiency virus 2	EC50	> 10 µM
Cc1cn([C@@H]2O[C@H](CO[Si](C)(C)C(C)(C)C)[C@@]3(OS(=O)(=O)C=C3N)[C@H]2O[Si](C)(C)C(C)(C)C)c(=O)n(CC2CC2)c1=O	Human immunodeficiency virus 2	EC50	> 50 µM

Now look at this entry.
Reported EC50 ( Cc1cn([C@@H]2O[C@H](CO[Si](C)(C)C(C)(C)C)[C@@]3(OS(=O)(=O)C=C3N)[C@H]2O[Si](C)(C)C(C)(C)C)c(=O)n(CC(=O)OCc2ccccc2)c1=O ) = > 27 µM

* * *

target: Human immunodeficiency virus type 1 reverse transcriptase (Human immunodeficiency virus 1, UniProt Q72547); assay: Inhibitory concentration required to inhibit recombinant HIV-1 reverse transcriptase
Hi! Could you tag entries with IC50 below 4 µM as Criterion met, and those at or above as Criterion not met? Much appreciated.

Example entries begin here.
>>> df
                                smiles_repr       answer_label
0  Cc1cn([C@@H]2O[C@H](CO[Si](C)(C)C(C)(C)C)[C@@]3(OS(=O)(=O)C=C3N)[C@H]2O[Si](C)(C)C(C)(C)C)c(=O)n(C/C=C/CO)c1=O  Criterion not met
1  Cc1cn([C@@H]2O[C@H](CO[Si](C)(C)C(C)(C)C)[C@@]3(OS(=O)(=O)C=C3N)[C@H]2O[Si](C)(C)C(C)(C)C)c(=O)n(CC(=O)OCc2ccccc2)c1=O  Criterion not met
2  CNC(=O)Cn1c(=O)c(C)cn([C@@H]2O[C@H](CO[Si](C)(C)C(C)(C)C)[C@@]3(OS(=O)(=O)C=C3N)[C@H]2O[Si](C)(C)C(C)(C)C)c1=O      Criterion met
3  COCCn1c(=O)c(C)cn([C@@H]2O[C@H](CO[Si](C)(C)C(C)(C)C)[C@@]3(OS(=O)(=O)C=C3N)[C@H]2O[Si](C)(C)C(C)(C)C)c1=O      Criterion met

Check if IC50 falls below 4 µM for Cc1cn([C@@H]2O[C@H](CO[Si](C)(C)C(C)(C)C)[C@@]3(OS(=O)(=O)C=C3N)[C@H]2O[Si](C)(C)C(C)(C)C)c(=O)n(CC(N)=O)c1=O .
Criterion not met

Is IC50 of Cc1cn([C@@H]2O[C@H](CO[Si](C)(C)C(C)(C)C)[C@@]3(OS(=O)(=O)C=C3N)[C@H]2O[Si](C)(C)C(C)(C)C)c(=O)n(CCBr)c1=O strictly below 4 µM?
Criterion not met

Report whether reported IC50 is lower than 4 µM (strictly) for Cc1cn([C@@H]2O[C@H](CO[Si](C)(C)C(C)(C)C)[C@@]3(OS(=O)(=O)C=C3N)[C@H]2O[Si](C)(C)C(C)(C)C)c(=O)n(CCCCO)c1=O
Criterion not met

Does the reported IC50 of the following compound sit strictly below 4 µM? Cc1cn([C@@H]2O[C@H](CO[Si](C)(C)C(C)(C)C)[C@@]3(OS(=O)(=O)C=C3N)[C@H]2O[Si](C)(C)C(C)(C)C)c(=O)n(CCCN)c1=O
Criterion not met
